system: ducksalad (Heteranthera limosa); assay: Test C flooded paddy test; type: in vivo; conditions: Flood, 125 g ai/ha; 0 is no effect, 100 is complete control
// reported Plant response rating (scale of 0 to 100), Ducksalad for each item listed
API doc: respond with a numeric literal and nothing else, no unit.

Reference set (3 entries):
Entry Cc1ccc(C2CN(C)C(=O)C2C(=O)Nc2ccccc2F)cc1 (stereo not shown) has what Plant response rating (scale of 0 to 100), Ducksalad?
95

Consider the compound shown here: O=C1NCC(c2cccc(F)c2F)C1C(=O)Nc1cccc(F)c1F (stereo not shown) What is its recorded Plant response rating (scale of 0 to 100), Ducksalad?
85

Look up Plant response rating (scale of 0 to 100), Ducksalad: Cc1ccc(C2CN(C)C(=O)C2C(=O)Nc2ccccc2F)cc1F (stereo not shown)
90

New cases:
Endpoint output: Plant response rating (scale of 0 to 100), Ducksalad of O=C1NCC(c2cccnc2)C1C(=O)Nc1ccccc1F (racemic) . Value?
0

* * *

system: ragweed (common ragweed, Ambrosia elatior); test: Test A preemergence; type: in vivo; details: Ambrosia artemisiifolia, pre-emergence, 240 h, 500 g ai/ha, Preemergence, visual injury vs untreated controls after approximately 10 d; read-out: Ragweed plant response rating (0 to 100 scale where 0 is no effect and 100 is complete control)
A collection of compounds and their measured pest or weed control at 500 g/ha

Recorded pest or weed control at 500 g/ha, per entry:
# get_value(readout='pest or weed control at 500 g/ha', item= CN1C[C@H](c2cccc(OC(F)(F)C(F)F)c2)[C@@H](C(=O)Nc2ccccc2S(C)(=O)=O)C1=O )
50%

If you can, please state the reported pest or weed control at 500 g/ha value of CC(F)(F)c1cccc([C@H]2CNC(=O)[C@@H]2C(=O)Nc2ccccc2F)c1 .
20%

Give its pest or weed control at 500 g/ha value. Item: Cc1cc([C@H]2CNC(=O)[C@@H]2C(=O)Nc2ccc(F)cc2F)ccc1Cl
40%

Value lookup for pest or weed control at 500 g/ha; key = COc1c(F)ccc([C@H]2CNC(=O)[C@@H]2C(=O)Nc2ccccc2S(C)(=O)=O)c1Cl
70%

***
If you can, please state the reported pest or weed control at 500 g/ha value of Cc1c(F)ccc([C@H]2CN(C)C(=O)[C@@H]2C(=O)Nc2ccc(F)cc2F)c1F .
0%

* * *

system: velvetleaf (Abutilon theophrasti); assay: Test G Post-Emergence Protocol; assay type: in vivo; conditions: Abutilon theophrasti, post-emergence, 312 h, 250 g ai/ha, evaluated after 13 days, 100=total damage to plant, 0=no damage to plant, read-out: Velvetleaf damage rating
Listed below: pest or weed control at 250 g/ha values for each entry.
Response body: numeric value in %, unit text excluded.

Name the reported pest or weed control at 250 g/ha value associated with the molecule CCOc1cc(C2CN(C)C(=O)C2C(=O)Nc2cccc(F)c2F)ccc1Cl (centres unmarked)
40

Need pest or weed control at 250 g/ha of CN1CC(c2cc(C#N)cc(C(F)(F)F)c2)C(C(=O)Nc2cccc(F)c2F)C1=O (centres unmarked) , thanks.
0

Reported pest or weed control at 250 g/ha, molecule CCc1cc([C@@H]2CN(C)C(=O)[C@H]2C(=O)Nc2cccc(F)c2C)ccc1Cl (racemic) : ____
10

---
Please look up its pest or weed control at 250 g/ha: CN1C[C@H](c2cc(F)cc(F)c2)[C@@H](C(=O)Nc2cnccc2C(F)(F)F)C1=O (racemic)
10

Data request, read-out pest or weed control at 250 g/ha, for CCOc1cc(C)cc(C2CN(C)C(=O)C2C(=O)Nc2cccc(F)c2F)c1 (centres unmarked)
30

Requested field: pest or weed control at 250 g/ha. Item: CN1C[C@@H](c2cccc(C(F)(F)F)c2)[C@H](C(=O)Nc2cccc(F)n2)C1=O
0

Recorded pest or weed control at 250 g/ha of CN1C[C@H](c2ccc(C(F)(F)F)cc2)[C@@H](C(=O)Nc2cccc3c2C(=O)OC3)C1=O (racemic) , please.
0

Would you mind telling me what pest or weed control at 250 g/ha value was observed for CN1C[C@H](c2cccc(C(F)(F)F)c2)[C@@H](C(=O)Nc2cnccc2C#N)C1=O (racemic) ?
10

Value lookup for pest or weed control at 250 g/ha; key = CC1OC(=O)c2c(NC(=O)[C@H]3C(=O)N(C)C[C@@H]3c3ccc(C(F)(F)F)cc3)cccc21 (mixture of isomers)
0

Consider the molecule shown here: CN1C[C@@H](c2ccc(CO)cc2)[C@H](C(=O)Nc2cccc(F)c2F)C1=O (racemic) What is its recorded pest or weed control at 250 g/ha?
0

Using the record for CN1C[C@H](c2cccc(C(F)(F)F)c2)[C@@H](C(=O)Nc2ccc3cccnc3n2)C1=O (racemic) , report its pest or weed control at 250 g/ha.
0
